Let's look at some molecules and their measured inhibition at 1 µM.
# tested-system: Abl(h) (Homo sapiens, UniProt P00519)
# Sequence (P00519 whole entry): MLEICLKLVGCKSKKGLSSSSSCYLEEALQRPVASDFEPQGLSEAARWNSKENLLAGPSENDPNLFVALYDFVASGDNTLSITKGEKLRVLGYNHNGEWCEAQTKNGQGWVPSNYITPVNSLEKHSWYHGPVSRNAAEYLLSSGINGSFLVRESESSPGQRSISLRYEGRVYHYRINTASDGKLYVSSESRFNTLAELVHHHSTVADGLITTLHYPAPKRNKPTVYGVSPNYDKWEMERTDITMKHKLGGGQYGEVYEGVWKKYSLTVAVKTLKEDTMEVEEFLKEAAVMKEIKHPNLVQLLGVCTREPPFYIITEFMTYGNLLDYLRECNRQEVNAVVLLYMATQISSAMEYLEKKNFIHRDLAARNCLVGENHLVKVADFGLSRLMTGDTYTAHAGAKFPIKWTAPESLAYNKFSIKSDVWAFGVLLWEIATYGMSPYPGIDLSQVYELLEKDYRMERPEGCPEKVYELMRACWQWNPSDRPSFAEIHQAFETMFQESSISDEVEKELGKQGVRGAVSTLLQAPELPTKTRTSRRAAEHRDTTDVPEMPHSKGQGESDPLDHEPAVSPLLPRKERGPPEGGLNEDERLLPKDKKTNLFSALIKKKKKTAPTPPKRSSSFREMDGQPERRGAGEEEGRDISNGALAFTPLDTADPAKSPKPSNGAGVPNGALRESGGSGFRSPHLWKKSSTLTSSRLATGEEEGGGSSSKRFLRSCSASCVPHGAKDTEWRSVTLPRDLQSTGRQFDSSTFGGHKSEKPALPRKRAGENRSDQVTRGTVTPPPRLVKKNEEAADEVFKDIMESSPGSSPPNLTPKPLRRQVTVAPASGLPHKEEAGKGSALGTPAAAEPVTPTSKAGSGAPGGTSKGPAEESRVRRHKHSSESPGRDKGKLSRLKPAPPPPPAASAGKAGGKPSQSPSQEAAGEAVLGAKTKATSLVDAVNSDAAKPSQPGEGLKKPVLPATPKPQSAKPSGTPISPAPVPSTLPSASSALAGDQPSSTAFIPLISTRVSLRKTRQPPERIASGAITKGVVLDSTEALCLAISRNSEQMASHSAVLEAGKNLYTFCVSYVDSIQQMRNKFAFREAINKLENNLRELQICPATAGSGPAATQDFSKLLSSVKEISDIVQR
# experiment-summary: KinaseProfiler kinase assay
# Type: biochemical
Numeric only. Scale: %

Cc1cc2c(F)c(Oc3nc(Nc4cc(C5CC5)[nH]n4)cc(N4C[C@@H](C)N[C@@H](C)C4)n3)ccc2[nH]1 = 107

Entry COCCN1CCN(c2cc(Nc3cc(C4CC4)[nH]n3)nc(Oc3ccc4[nH]c(C)cc4c3F)n2)CC1 , inhibition at 1 µM reported as 108

The measured inhibition at 1 µM associated with C/C=C/c1cc(Nc2cc(N3CCN(C)CC3)nc(Oc3ccc4[nH]c(C)cc4c3F)n2)n[nH]1 reads 109

* * *

# tested-system: Aurora-A(h) (Homo sapiens, UniProt O14965)
# experiment-summary: KinaseProfiler kinase assay
# Type: biochemical
# condition-context: read-out: % Inhibition @1 μM Auroro-A
reported-property: inhibition at 1 µM (%)
Give your result in % as a bare value.

Reference set, count: 4
Cc1cc2c(F)c(Oc3nc(Nc4cc(C5CC5)[nH]n4)cc(N4CCN(CCO)CC4)n3)cc(F)c2[nH]1 [Compound 83] = 100
CCC1CN(c2cc(Nc3cc(C4CC4)[nH]n3)nc(Oc3ccc4[nH]c(C)cc4c3F)n2)CCN1 (centres unmarked) [Compound 41] = 87
Cc1cc2c(F)c(Oc3nc(Nc4cc(C5CC5)[nH]n4)cc(N4CCN(c5cccnc5)CC4)n3)ccc2[nH]1 [Compound 26] = 101
C/C=C/c1cc(Nc2cc(N3CCC(OC)CC3)nc(Oc3ccc4[nH]c(C)cc4c3F)n2)n[nH]1 [Compound 58] = 90

For record C/C=C/c1cc(Nc2cc(N3CCC(N(CC)CC)C3)nc(Oc3cc(F)c4[nH]c(C)cc4c3F)n2)n[nH]1 (centres unmarked) [Compound 94] the listed inhibition at 1 µM is 100

* * *

# tested-system: Flt3(h) (Homo sapiens)
# Sequence (P36888 27-993): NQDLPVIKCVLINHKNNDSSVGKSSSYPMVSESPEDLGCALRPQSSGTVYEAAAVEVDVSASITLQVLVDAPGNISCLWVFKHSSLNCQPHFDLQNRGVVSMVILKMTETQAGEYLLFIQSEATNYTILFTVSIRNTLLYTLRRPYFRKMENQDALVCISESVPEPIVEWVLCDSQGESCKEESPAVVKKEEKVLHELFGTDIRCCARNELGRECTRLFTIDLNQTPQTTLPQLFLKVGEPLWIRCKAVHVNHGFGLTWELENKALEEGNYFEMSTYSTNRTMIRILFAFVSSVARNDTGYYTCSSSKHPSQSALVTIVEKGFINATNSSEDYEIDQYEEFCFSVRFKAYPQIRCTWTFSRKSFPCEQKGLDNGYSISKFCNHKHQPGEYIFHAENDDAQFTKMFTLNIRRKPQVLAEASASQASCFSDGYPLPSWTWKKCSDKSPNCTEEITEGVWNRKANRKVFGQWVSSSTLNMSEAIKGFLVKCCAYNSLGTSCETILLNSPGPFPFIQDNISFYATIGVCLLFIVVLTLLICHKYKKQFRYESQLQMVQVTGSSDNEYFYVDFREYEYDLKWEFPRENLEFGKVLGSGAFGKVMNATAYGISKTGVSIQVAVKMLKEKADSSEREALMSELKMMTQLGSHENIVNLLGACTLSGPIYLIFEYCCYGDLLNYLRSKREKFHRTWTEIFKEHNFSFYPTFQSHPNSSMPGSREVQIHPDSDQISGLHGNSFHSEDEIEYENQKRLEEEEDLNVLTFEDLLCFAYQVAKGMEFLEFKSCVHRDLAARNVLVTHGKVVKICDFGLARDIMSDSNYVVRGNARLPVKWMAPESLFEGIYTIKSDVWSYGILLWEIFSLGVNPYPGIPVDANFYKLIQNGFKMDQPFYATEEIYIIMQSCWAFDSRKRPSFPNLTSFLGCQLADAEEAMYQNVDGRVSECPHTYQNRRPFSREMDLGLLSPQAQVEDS
# experiment-summary: KinaseProfiler kinase assay
# Type: biochemical
# condition-context: read-out: IC50 (nM) Flt3 (h)
The reader will find reported IC50 values listed item by item below.
Just the number please, in nM, no unit attached.

A selection of reference data follows.
Cc1cc2c(F)c(Oc3nc(Nc4cc(C5CC5)[nH]n4)cc(N4CCN(C)CC4)n3)ccc2[nH]1 = 11
C/C=C/c1cc(Nc2cc(N3CCNCC3)nc(Oc3ccc4[nH]c(C)cc4c3F)n2)n[nH]1 = 4
Cc1cc2c(F)c(Oc3nc(Nc4cc(C5CC5)[nH]n4)cc(N4CCNCC4)n3)ccc2[nH]1 = 12
Cc1cc2c(F)c(Oc3nc(Nc4cc(C5CC5)[nH]n4)cc(N4CCNCC4)n3)cc(F)c2[nH]1 = 6
Cc1cc2c(F)c(Oc3nc(Nc4cc(C5CC5)[nH]n4)cc(N4CCN(CCO)CC4)n3)ccc2[nH]1 = 0.3

Could you now consider this next compound?
Just so you know, measured IC50 for C/C=C/c1cc(Nc2cc(N3CCN(CCO)CC3)nc(Oc3cc(F)c4[nH]c(C)cc4c3F)n2)n[nH]1 came out at 8

* * *

# tested-system: Aurora-A(h) (Homo sapiens)
# Sequence (O14965 1-403): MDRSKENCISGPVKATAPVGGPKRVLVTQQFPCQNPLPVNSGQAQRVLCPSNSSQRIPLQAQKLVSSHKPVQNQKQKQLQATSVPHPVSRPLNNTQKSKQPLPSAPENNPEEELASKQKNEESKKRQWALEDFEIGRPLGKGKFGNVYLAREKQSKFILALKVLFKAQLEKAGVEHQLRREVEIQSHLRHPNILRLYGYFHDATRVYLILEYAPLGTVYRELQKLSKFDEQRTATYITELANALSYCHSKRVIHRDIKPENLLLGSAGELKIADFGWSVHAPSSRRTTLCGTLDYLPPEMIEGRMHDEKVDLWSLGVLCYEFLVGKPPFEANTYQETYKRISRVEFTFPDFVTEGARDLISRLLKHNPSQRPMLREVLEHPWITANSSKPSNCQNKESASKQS
# experiment-summary: KinaseProfiler kinase assay
# Format: biochemical
# condition-context: read-out: IC50 (nM) Auroro-A (h)
IC50 reference
Give your result in nM as a bare value.

Worked cases, answers included:
Cc1cc2c(F)c(Oc3nc(Nc4cc(C5CC5)[nH]n4)cc(N4CCNCC4)n3)cc(F)c2[nH]1 = 4
C/C=C/c1cc(Nc2cc(N3CCNCC3)nc(Oc3ccc4[nH]c(C)cc4c3F)n2)n[nH]1 = 10
Cc1cc2c(F)c(Oc3nc(Nc4cc(C5CC5)[nH]n4)cc(N4CCN(C)CC4)n3)ccc2[nH]1 = 2

Item: Cc1cc2c(F)c(Oc3nc(Nc4cc(C5CC5)[nH]n4)cc(N4CCN(CCO)CC4)n3)ccc2[nH]1 | IC50: 2
